The values you see were collected from patent US20230339891A1.

Biological target: GST-MERTK 578-872 (Homo sapiens (Human), UniProt Q12866)
Sequence (Q12866 578-872): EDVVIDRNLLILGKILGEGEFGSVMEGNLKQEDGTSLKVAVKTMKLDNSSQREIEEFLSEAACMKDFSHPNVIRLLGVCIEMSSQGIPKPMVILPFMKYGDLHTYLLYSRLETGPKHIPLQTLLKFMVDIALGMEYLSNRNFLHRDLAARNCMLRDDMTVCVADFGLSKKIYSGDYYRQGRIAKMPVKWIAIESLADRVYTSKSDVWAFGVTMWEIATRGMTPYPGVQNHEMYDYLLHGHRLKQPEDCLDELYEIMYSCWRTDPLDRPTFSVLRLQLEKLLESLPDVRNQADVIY
Assay: MERTK kinase homogeneous time resolved fluorescence (HTRF) binding assay
Details: 1 nM kinase, fluorescein-labeled kinase tracer at Kd, 60 minutes at room temperature; read-out: Mer HTRF IC50

Chemical string	IC50
CS(=O)(=O)C1CCN(c2nccc(Nc3cc(Oc4ccc(NC(=O)c5cn(C6CC6)c(=O)n(-c6ccc(F)cc6)c5=O)cc4F)ccn3)n2)CC1	4.1 nM
CC(C)n1cc(C(=O)Nc2ccc(Oc3ccnc(Nc4ccnc(N5CCCC5)n4)c3)c(F)c2)c(=O)n(CC2CC2)c1=O	1.6 nM
CNS(=O)(=O)c1ccc(Nc2cc(Oc3ccc(NC(=O)c4cn(C(C)C)c(=O)n(-c5ccc(F)cc5)c4=O)cc3F)ccn2)nc1	8.3 nM
COC[C@H](C)n1cc(C(=O)Nc2ccc(Oc3ccnc(Nc4ccc(S(=O)(=O)N(C)C)cn4)c3)c(F)c2)c(=O)n(-c2ccc(F)cc2)c1=O	40 nM
Cc1cccc(-n2c(=O)c(C(=O)Nc3ccc(Oc4ccnc(Nc5ccc(S(=O)(=O)N(C)C)cn5)c4)c(F)c3)cn(C(C)C)c2=O)c1	14 nM
CC(C)Cn1c(=O)c(C(=O)Nc2ccc(Oc3ccnc(Nc4ccnc(N5CCCC5)n4)c3)c(F)c2)cn(C(C)C)c1=O	5.4 nM

----------
Read-out record for GST-MERTK 578-872 (Homo sapiens (Human), UniProt Q12866): IC50

Compound	IC50 (nM)
COC(=O)N1CCN(c2nc(Nc3cc(Oc4ccc(NC(=O)c5cn(C(C)C)c(=O)n(-c6ccc(F)cc6)c5=O)cc4F)ccn3)ccc2C#N)CC1 [Example 119]	1.5
COC(=O)c1ccc(Nc2cc(Oc3ccc(NC(=O)c4cn(C(C)C)c(=O)n(-c5ccc(F)cc5)c4=O)cc3F)ccn2)nc1 [Example 14]	11
CC(=O)c1cccc(-n2c(=O)c(C(=O)Nc3ccc(Oc4ccnc(Nc5ccc(S(=O)(=O)N(C)C)cn5)c4)c(F)c3)cn(C(C)C)c2=O)c1 [Example 73]	24

----------
Target: HIS-AXL 473-End (Homo sapiens (Human))
Measure: IC50 (nM)

Chemical string	Measure	Unit tag	Endpoint value
CC(C)Cn1c(=O)c(C(=O)Nc2ccc(Oc3ccnc(Nc4ccnc(N5CCCC5)n4)c3)c(F)c2)cn(C(C)C)c1=O	IC50	nM	11
COC(=O)Cc1csc(Nc2cc(Oc3ccc(NC(=O)c4cn(C(C)C)c(=O)n(-c5ccc(F)cc5)c4=O)cc3F)ccn2)n1	IC50	nM	19
CN(C)S(=O)(=O)c1ccc(Nc2cc(Oc3ccc(NC(=O)c4cn(C5CC5)c(=O)n(-c5ccccc5)c4=O)cc3F)ccn2)nc1	IC50	nM	222

----------
Read-out record for GST-MERTK 578-872 (Homo sapiens (Human)): IC50

Compound	IC50
CC(C)n1cc(C(=O)Nc2ccc(Oc3ccnc(Nc4ccnc(N5CCC(S(C)(=O)=O)CC5)n4)c3)c(F)c2)c(=O)n(C23CC(C2)C3)c1=O	2.8 nM
CC(C)n1cc(C(=O)Nc2ccc(Oc3ccnc(Nc4ccc(OC(F)(F)F)cn4)c3)c(F)c2)c(=O)n(-c2ccc(F)cc2)c1=O	128 nM
CC(C)n1cc(C(=O)Nc2ccc(Oc3ccnc(Nc4ccc(S(=O)(=O)N5CCC5)cn4)c3)c(F)c2)c(=O)n(-c2ccc(F)cc2)c1=O	17 nM
CC(C)n1cc(C(=O)Nc2ccc(Oc3ccnc(Nc4ccc(-n5ccnc5)cn4)c3)c(F)c2)c(=O)n(-c2ccc(F)cc2)c1=O	12 nM
Cc1ccc(Nc2cc(Oc3ccc(NC(=O)c4cn(C(C)C)c(=O)n(-c5ccc(F)cc5)c4=O)cc3F)ccn2)nc1	32 nM
CC(C)n1cc(C(=O)Nc2ccc(Oc3ccnc(Nc4ccc(N5CCC(N)C5=O)cn4)c3)c(F)c2)c(=O)n(-c2ccc(F)cc2)c1=O (stereo not drawn)	3.1 nM

----------
pIC50: −log10 of the molar value.
Read-out record for GST-MERTK 578-872 (Homo sapiens (Human)): pIC50
Measure: pIC50

Chemical string	Endpoint value
CC(C)n1cc(C(=O)Nc2ccc(Oc3ccnc(Nc4ccc(S(=O)(=O)N5CCOCC5)cn4)c3)c(F)c2)c(=O)n(-c2ccc(F)cc2)c1=O	7.51
COC(=O)N1CCN(c2nc(Nc3cc(Oc4ccc(NC(=O)c5cn(C(C)C)c(=O)n(-c6ccc(F)cc6)c5=O)cc4F)ccn3)ccc2C(F)(F)F)CC1	7.96
Cc1cnc(Nc2cc(Oc3ccc(NC(=O)c4cn(C(C)C)c(=O)n(-c5ccc(F)cc5)c4=O)cc3F)ccn2)cn1	7.72
CC(C)n1cc(C(=O)Nc2ccc(Oc3ccnc(Nc4ccc(C#N)c(N5CCN(S(C)(=O)=O)[C@H](C)C5)n4)c3)c(F)c2)c(=O)n(-c2ccc(F)cc2)c1=O	8.66
CC(C)n1cc(C(=O)Nc2ccc(Oc3ccnc(Nc4ccc(N5CCN(C(C)(C)C)C5=O)cn4)c3)c(F)c2)c(=O)n(-c2ccc(F)cc2)c1=O	7.14
CC(C)n1cc(C(=O)Nc2ccc(Oc3ccnc(Nc4ccc(S(=O)(=O)N(C)C)cn4)c3)c(F)c2)c(=O)n(-c2cccc(F)c2)c1=O	7.70
CN(C)S(=O)(=O)c1ccc(Nc2cc(Oc3ccc(NC(=O)c4cn(C5CC5)c(=O)n(-c5ccccc5)c4=O)cc3F)ccn2)nc1	7.68
CC(C)n1cc(C(=O)Nc2ccc(Oc3ccnc(Nc4ccc(S(=O)(=O)N(C)C)cn4)c3)c(F)c2)c(=O)n(-c2ccc(F)c(F)c2)c1=O	7.64
Cc1cc(Nc2cc(Oc3ccc(NC(=O)c4cn(C(C)C)c(=O)n(-c5ccc(F)cc5)c4=O)cc3F)ccn2)ncc1S(=O)(=O)N(C)C	7.51
CC(C)n1cc(C(=O)Nc2ccc(Oc3ccnc(Nc4ccc(C#N)c(N5CCCC5)n4)c3)c(F)c2)c(=O)n(-c2ccc(F)cc2)c1=O	8.55
Cc1cnc(Nc2cc(Oc3ccc(NC(=O)c4cn(C(C)C)c(=O)n(-c5ccc(F)cc5)c4=O)cc3F)ccn2)nc1	6.80
CC(C)n1cc(C(=O)Nc2ccc(Oc3ccnc(Nc4ccc(S(=O)(=O)N(C)C)cn4)c3)c(F)c2)c(=O)n(-c2ccccc2)c1=O	7.68
CC(C)n1cc(C(=O)Nc2ccc(Oc3ccnc(Nc4ccc(N5CCOCC5)cn4)c3)c(F)c2)c(=O)n(-c2ccc(F)cc2)c1=O	6.79
CC(C)n1cc(C(=O)Nc2ccc(Oc3ccnc(Nc4ccc(S(N)(=O)=O)cn4)c3)c(F)c2)c(=O)n(-c2ccc(F)cc2)c1=O	8.36
CC(=O)c1ccc(-n2c(=O)c(C(=O)Nc3ccc(Oc4ccnc(Nc5ccc(S(=O)(=O)N(C)C)cn5)c4)c(F)c3)cn(C(C)C)c2=O)cc1	6.09
CC(C)NC(=O)c1ccc(Nc2cc(Oc3ccc(NC(=O)c4cn(C(C)C)c(=O)n(-c5ccc(F)cc5)c4=O)cc3F)ccn2)nc1	8.46
CC(C)n1cc(C(=O)Nc2ccc(Oc3ccnc(Nc4cccc(C(F)(F)F)n4)c3)c(F)c2)c(=O)n(-c2ccc(F)cc2)c1=O	7.80

----------
Target: HIS-AXL 473-End (Homo sapiens (Human), UniProt P30530)
Sequence (P30530 473-894): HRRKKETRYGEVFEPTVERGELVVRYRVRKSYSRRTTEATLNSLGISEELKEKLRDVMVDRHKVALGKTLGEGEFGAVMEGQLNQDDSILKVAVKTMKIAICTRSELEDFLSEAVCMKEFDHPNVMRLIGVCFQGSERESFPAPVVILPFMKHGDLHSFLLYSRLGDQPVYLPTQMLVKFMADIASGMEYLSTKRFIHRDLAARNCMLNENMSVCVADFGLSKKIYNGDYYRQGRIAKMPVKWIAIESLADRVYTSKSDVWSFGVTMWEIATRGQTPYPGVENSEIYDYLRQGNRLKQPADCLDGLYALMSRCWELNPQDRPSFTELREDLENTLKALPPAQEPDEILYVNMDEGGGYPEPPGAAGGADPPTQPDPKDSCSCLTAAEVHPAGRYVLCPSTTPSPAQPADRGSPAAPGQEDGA
pIC50: −log10 of the molar value.
Measure: pIC50

Chemical string	Endpoint value
CC(C)n1cc(C(=O)Nc2ccc(Oc3ccnc(Nc4ccc(S(=O)(=O)N(C)C)cn4)c3)c(F)c2)c(=O)n(-c2ccc(Cl)cc2)c1=O	7.51
CC(C)NS(=O)(=O)c1ccc(Nc2cc(Oc3ccc(NC(=O)c4cn(C(C)C)c(=O)n(-c5ccc(F)cc5)c4=O)cc3F)ccn2)nc1	6.01
CC(C)n1cc(C(=O)Nc2ccc(Oc3ccnc(Nc4ccnc(N5CCC(S(C)(=O)=O)CC5)n4)c3)c(F)c2)c(=O)n(C23CC(C2)C3)c1=O	8.32
COc1cccc(-n2c(=O)c(C(=O)Nc3ccc(Oc4ccnc(Nc5ccc(S(=O)(=O)N(C)C)cn5)c4)c(F)c3)cn(C(C)C)c2=O)c1	7.92
CN(C)S(=O)(=O)c1ccc(Nc2cc(Oc3ccc(NC(=O)c4cn([C@@H]5CCOC5)c(=O)n(-c5ccc(F)cc5)c4=O)cc3F)ccn2)nc1	8.27
Cc1ccc(-n2c(=O)c(C(=O)Nc3ccc(Oc4ccnc(Nc5ccc(S(=O)(=O)N(C)C)cn5)c4)c(F)c3)cn(C(C)C)c2=O)cc1	8.34

----------
Read-out record for HIS-AXL 473-End (Homo sapiens (Human)): IC50

Compound	IC50
CC(C)n1cc(C(=O)Nc2ccc(Oc3ccnc(Nc4ccnc(N5CCCC5)n4)c3)c(F)c2)c(=O)n(-c2ccc(F)cc2)c1=O [Example 103]	0.7 nM
CC(C)n1cc(C(=O)Nc2ccc(Oc3ccnc(Nc4ccc(S(=O)(=O)NC5CC5)cn4)c3)c(F)c2)c(=O)n(-c2ccc(F)cc2)c1=O [Example 79]	70 nM
CC(C)n1cc(C(=O)Nc2ccc(Oc3ccnc(Nc4ccc(N5CCN(C(C)(C)C)C5=O)cn4)c3)c(F)c2)c(=O)n(-c2ccc(F)cc2)c1=O [Example 91]	38 nM
CC(=O)c1cccc(-n2c(=O)c(C(=O)Nc3ccc(Oc4ccnc(Nc5ccc(S(=O)(=O)N(C)C)cn5)c4)c(F)c3)cn(C(C)C)c2=O)c1 [Example 73]	59 nM
CNS(=O)(=O)c1ccc(Nc2cc(Oc3ccc(NC(=O)c4cn(C(C)C)c(=O)n(-c5ccc(F)cc5)c4=O)cc3F)ccn2)nc1 [Example 77]	5 nM
CC(C)n1cc(C(=O)Nc2ccc(Oc3ccnc(Nc4ccc(S(=O)(=O)N(C)C)cn4)c3)c(F)c2)c(=O)n(-c2cccc(F)c2)c1=O [Example 68]	7.1 nM
COC(=O)N1CCN(c2nc(Nc3cc(Oc4ccc(NC(=O)c5cn(C(C)C)c(=O)n(-c6ccc(F)cc6)c5=O)cc4F)ccn3)ccc2C#N)CC1 [Example 119]	4.2 nM
Cc1cnc(Nc2cc(Oc3ccc(NC(=O)c4cn(C(C)C)c(=O)n(-c5ccc(F)cc5)c4=O)cc3F)ccn2)cc1C [Example 6]	7.9 nM
Cc1ccc(Nc2cc(Oc3ccc(NC(=O)c4cn(C(C)C)c(=O)n(-c5ccc(F)cc5)c4=O)cc3F)ccn2)nc1 [Example 4]	4.4 nM
CC(C)n1cc(C(=O)Nc2ccc(Oc3ccnc(Nc4ccc(C(C)(C)O)cn4)c3)c(F)c2)c(=O)n(-c2ccc(F)cc2)c1=O [Example 15]	1.7 nM
CC(C)n1cc(C(=O)Nc2ccc(Oc3ccnc(Nc4ccc(C(=O)NS(=O)(=O)C(C)C)cn4)c3)c(F)c2)c(=O)n(-c2ccc(F)cc2)c1=O [Example 96]	0.7 nM
CC(C)n1cc(C(=O)Nc2ccc(Oc3ccnc(Nc4ccnc(N5CCCC5)n4)c3)c(F)c2)c(=O)n(Cc2ccccc2)c1=O [Example 106]	8.2 nM
